biological target: HIV-1 RT-associated RNase H (Human immunodeficiency virus type 1 group M subtype B, UniProt P04585); construct: The 1:1 ratio between the p66/p51 subunits was also verified; His tag (implied only by Ni-NTA IMAC purification); made in house; host or cells: Escherichia coli M15; test: HIV-1 DNA polymerase-independent RNase H activity determination; type: biochemical; conditions: wt HIV-1 RT; three independent experiments, average ± standard deviation; read-out: RNase H IC50
Strictly below 7 µM in IC50: t. Otherwise: f.

| Compound | Category |
| --- | --- |
| O=C1Nc2ccc([N+](=O)[O-])cc2/C1=N/Nc1nc(-c2ccc(Cl)cc2)cs1 | t |
| Cc1ccc(-c2csc(NN=C3C(=O)Nc4ccc(Cl)cc43)n2)cc1 [10b] | f |
| O=C1Nc2ccc([N+](=O)[O-])cc2/C1=N/Nc1nc(-c2ccccc2)cs1 [12a] | t |
| O=C1Nc2ccc(Cl)cc2/C1=N/Nc1nc(-c2ccc(-c3ccccc3)cc2)cs1 | f |
| O=C1Nc2ccc(Cl)cc2/C1=N/Nc1nc(-c2ccccc2)cs1 [12b] | t |
| O=C1Nc2ccc(Cl)cc2C1=NNc1nc(-c2ccc(Cl)cc2)cs1 | f |
| O=C1Nc2ccc(Cl)cc2/C1=N/Nc1nc(-c2ccc(F)cc2F)cs1 | t |
| COc1ccc(-c2cs/c(=N\N=C3/C(=O)Nc4ccc([N+](=O)[O-])cc43)n2C)cc1 [11c] | t |
| O=C1Nc2ccc(Cl)cc2/C1=N/Nc1nc(-c2ccc([N+](=O)[O-])cc2)cs1 | f |
| N#Cc1ccc(-c2csc(N/N=C3\C(=O)Nc4ccc([N+](=O)[O-])cc43)n2)cc1 | t |
| O=C1Nc2ccc(Cl)cc2/C1=N/Nc1nc(-c2ccc(F)cc2)cs1 | t |
| Cn1c(-c2ccccc2)cs/c1=N\N=C1/C(=O)Nc2ccc([N+](=O)[O-])cc21 [12c] | t |
| O=C1Nc2ccc([N+](=O)[O-])cc2/C1=N/Nc1nc(-c2ccc(Cl)c(Cl)c2)cs1 | t |
| N#Cc1ccc(-c2csc(N/N=C3\C(=O)Nc4ccc(Cl)cc43)n2)cc1 | f |
| O=C1Nc2ccc([N+](=O)[O-])cc2/C1=N/Nc1nc(-c2ccc(F)cc2)cs1 | t |
| O=C1Nc2ccc([N+](=O)[O-])cc2/C1=N/Nc1nc(-c2cccc([N+](=O)[O-])c2)cs1 | t |
| Cn1c(-c2cccc([N+](=O)[O-])c2)cs/c1=N\N=C1/C(=O)Nc2ccc([N+](=O)[O-])cc21 | f |
| Cn1c(-c2ccc(C#N)cc2)cs/c1=N\N=C1/C(=O)Nc2ccc([N+](=O)[O-])cc21 | f |
| Cn1c(-c2ccc(Br)cc2)cs/c1=N\N=C1/C(=O)Nc2ccc([N+](=O)[O-])cc21 | f |
| O=C1Nc2ccc(Cl)cc2/C1=N/Nc1nc(-c2ccc(Br)cc2)cs1 | t |
| O=C1Nc2ccc(Cl)cc2/C1=N/Nc1nc(-c2ccc(Cl)c(Cl)c2)cs1 | f |
| COc1ccc(-c2csc(N/N=C3\C(=O)Nc4ccc([N+](=O)[O-])cc43)n2)cc1 [11a] | f |
| Cn1c(-c2ccc(-c3ccccc3)cc2)cs/c1=N\N=C1/C(=O)Nc2ccc([N+](=O)[O-])cc21 | t |

* * *

target: HIV-1 IN (LEDGF-independent) (Human immunodeficiency virus type 1 group M subtype B, UniProt P12497); construct: Preparation of recombinant full-length IN and LEDGF proteins; assay: biochemical; details: strand-transfer activity with omission of LEDGF/p75; read-out: IC50 IN LEDGF-independent integration
pIC50: −log10 of the molar value.
Readout type: pIC50

| Molecule | Result qualifier | Test value |
| --- | --- | --- |
| O=C1Nc2ccc([N+](=O)[O-])cc2/C1=N/Nc1nc(-c2ccc(Br)cc2)cs1 | = | 4.13 |
| Cc1ccc(-c2csc(N/N=C3\C(=O)Nc4ccc([N+](=O)[O-])cc43)n2)cc1 [10a] | = | 4.45 |
| O=C1Nc2ccc(Cl)cc2/C1=N/Nc1nc(-c2ccc(Cl)c(Cl)c2)cs1 | < | 4.00 |
| N#Cc1ccc(-c2csc(NN=C3C(=O)Nc4ccccc43)n2)cc1 [RMNC6, reference compound] | < | 4.00 |
| O=C1Nc2ccc([N+](=O)[O-])cc2/C1=N/Nc1nc(-c2ccc(Cl)cc2)cs1 | = | 4.00 |

* * *

experiment: Viability of infected MT4 cells (cytotoxicity); format: cell-based; settings: human; infected MT4 cells viability; three independent experiments, average ± standard deviation
Readout type: CC50

| Molecule | Test value |
| --- | --- |
| Cn1c(-c2ccc([N+](=O)[O-])cc2)cs/c1=N\N=C1/C(=O)Nc2ccc([N+](=O)[O-])cc21 [4c] | 5.5 µM |
| O=C1Nc2ccc([N+](=O)[O-])cc2/C1=N/Nc1nc(-c2ccc([N+](=O)[O-])cc2)cs1 [4a] | > 100 µM |

* * *

target: HIV-1 RT-associated RDDP (Human immunodeficiency virus type 1 group M subtype B); construct: The 1:1 ratio between the p66/p51 subunits was also verified; His tag (implied only by Ni-NTA IMAC purification); made in house; host or cells: Escherichia coli M15; assay: HIV-1 RNA-dependent DNA polymerase activity determination; assay type: biochemical; conditions: wt HIV-1 RT; three independent experiments, average ± standard deviation; read-out: RDDP IC50

| Compound | IC50, µM |
| --- | --- |
| O=C1Nc2ccc([N+](=O)[O-])cc2/C1=N/Nc1nc(-c2ccc(Cl)cc2)cs1 | 10 |
| O=C1Nc2ccc(Cl)cc2/C1=N/Nc1nc(-c2ccc(F)cc2F)cs1 | 10 |
| O=C1Nc2ccc([N+](=O)[O-])cc2/C1=N/Nc1nc(-c2ccc(-c3ccccc3)cc2)cs1 | 12 |
| O=C1Nc2ccc(Cl)cc2/C1=N/Nc1nc(-c2ccc([N+](=O)[O-])cc2)cs1 | 14.9 |
| O=C1Nc2ccc([N+](=O)[O-])cc2/C1=N/Nc1nc(-c2ccc(F)cc2F)cs1 | 11.5 |
| Cc1ccc(-c2csc(NN=C3C(=O)Nc4ccc(Cl)cc43)n2)cc1 [10b] | 18 |
| COc1ccc(-c2cs/c(=N\N=C3/C(=O)Nc4ccc([N+](=O)[O-])cc43)n2C)cc1 [11c] | 11.2 |
| O=C1Nc2ccc(Cl)cc2/C1=N/Nc1nc(-c2ccc(-c3ccccc3)cc2)cs1 | 38 |
| O=C1Nc2ccc(Cl)cc2/C1=N/Nc1nc(-c2ccc(Cl)c(Cl)c2)cs1 | 24 |
| COc1ccc(-c2csc(N/N=C3\C(=O)Nc4ccc([N+](=O)[O-])cc43)n2)cc1 [11a] | 14.5 |
| O=C1Nc2ccc(Cl)cc2/C1=N/Nc1nc(-c2ccc(Br)cc2)cs1 | 8.3 |
